- testedTarget: Gal-1 (Homo sapiens)
- Construct: made in house
- Sequence (P09382 whole entry): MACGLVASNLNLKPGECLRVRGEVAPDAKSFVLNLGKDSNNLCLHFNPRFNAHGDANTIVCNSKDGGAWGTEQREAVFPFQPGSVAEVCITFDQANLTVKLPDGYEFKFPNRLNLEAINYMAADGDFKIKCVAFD
- procedureDetails: competitive fluorescence polarisation assay, Gal-1
- Type: binding
- assayContext: ratio of FP Kd values
measuredEndpoint: Gal-1 selectivity ratio Kd (Gal-1)/Kd (Gal-8N)

A = Cc1cccc(CO[C@@H]2[C@@H](OCc3nc4ccc(C(=O)O)cc4n3C)[C@@H](O)[C@@H](CO)O[C@@H]2Sc2ccc(Cl)c(Cl)c2)c1
B = COC(=O)c1ccccc1-n1cc(CO[C@@H]2[C@@H](OCc3nc4ccc(C(=O)O)cc4n3C)[C@@H](O)[C@@H](CO)O[C@@H]2Sc2ccc(Cl)c(Cl)c2)nn1 [Compound 15a]
Lookup: Given the listed items, does A or B have the lesser reported Gal-1 selectivity ratio Kd (Gal-1)/Kd (Gal-8N)? Kindly state the label of the option you pick.
Found: A

A = Cn1c(CO[C@H]2[C@@H](O)[C@@H](CO)O[C@H](Sc3ccc(Cl)c(Cl)c3)[C@@H]2OCC2CCCCC2)nc2ccc(C(=O)O)cc21
B = Cn1c(CO[C@H]2[C@@H](O)[C@@H](CO)O[C@H](Sc3ccc(Cl)c(Cl)c3)[C@@H]2OCC(=O)O)nc2ccc(C(=O)O)cc21
Lookup: Which gives the smaller Gal-1 selectivity ratio Kd (Gal-1)/Kd (Gal-8N) number: A or B ? Please identify the chosen entry by its label.
Found: A
